- System: ACHN
- assay.protocol: NCI tumour cell line growth inhibition, 48 h
Active and inactive are the calls of the source. Cut-off read from the data, not from the text of the source: active = GI50 up to about 1.1 µM and inactive = higher.
measurement.type: GI50

compound | GI50
COc1cc2c3c4c1OCc1c5c(cc(c1-4)CC3[N+](C)(C)CC2)OCO5 (stereo not given) | > 100 µM (inactive)
COc1cc2c(cc1OCCCCCCCCCCN1C(=O)c3cccc4cccc(c34)C1=O)N=C[C@@H]1CCCN1C2=O | 10 µM (inactive)
CCNC(=O)OCc1c(COC(=O)NCC)c(-c2ccc(Cl)c(Cl)c2)n2c1CCC2 | 4.88 µM (inactive)
Cc1ccc(SCC(CSCCO)OCn2cnc3c2N=C(N)NC32OCCO2)cc1 (stereo not given) | > 100 µM (inactive)
COc1ccc(N2C(=O)C3c4[nH]c5ccccc5c4C4CCCCCCCCCCC4C3C2=O)cc1 (stereo not given) | 29.4 µM (inactive)
O=C1NCCS(=O)(=O)N[C@@H](CC2=CC=CCC2)C(=O)N2CCCC12 (stereo not given in full) | > 100 µM (inactive)
COc1ccc(/C=C/C(=O)C(C)(C)C)cc1OC | > 100 µM (inactive)
CCOc1ccc(N/C(=C(/C(Cl)=C(/Cl)NCCN)[N+](=O)[O-])n2nnc3ccccc32)cc1 | 17.9 µM (inactive)

State its GI50: CC(C)(Br)C(=O)N1CCN(C(c2ccccc2)c2ccccc2)CC1
> 100 µM (inactive)

Respond only with GI50 recorded for CC(=O)Oc1ccc2c(c1)c1c(=O)oc(C)nc1n2Cc1ccccc1
28.7 µM (inactive)
